Values compiled from the supplement of paper PMC12669032.

System: Parabacteroides distasonis
assayName: growth AUC relative to DMSO control (median of replicates) (fraction); higher = more growth (less inhibition), active = hit call of the paper;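 active = AUC reduced over 20% with Padj below 0.05 in at least 2 of 3 replicates; inactive = otherwise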
conditions: 20 µM; 24 h
Select the matching outcome among 1 for active, -1 for inactive

Past entries and their recorded results:
molecule | class
Cc1cc(Cl)ccc1OCC(=O)O | -1
Nc1ccc(Cl)cc1Cl | -1
CNC(=O)O/N=C(\C)C(C)S(C)=O (stereo not drawn) | -1
COP(=S)(OC)SCC(=O)N(c1ccc(Cl)cc1)C(C)C | -1
CCOC(=O)c1cn2nc(OP(=S)(OCC)OCC)cc2nc1C | 1

Returns: the outcome recorded for COc1c(Cl)ccc(Cl)c1Cl in this assay. -1

Try the molecule CCOP(=O)(NC(C)C)Oc1ccc(S(C)=O)c(C)c1 (stereo not drawn) -1

Try the molecule O=P(OC(CCl)CCl)(OC(CCl)CCl)OC(CCl)CCl 1

Try the molecule CCN(CC)C(=O)SCc1ccc(Cl)cc1 -1

Try the molecule CC(Cc1ccc(C(C)(C)C)cc1)CN1CCCCC1 (stereo not drawn) -1

Try the molecule CN1CSC(=S)N(C)C1 -1

Try the molecule CNC1=C(c2cccc(C(F)(F)F)c2)C(=O)C(c2ccccc2)O1 (stereo not drawn) -1

Try the molecule CC1CNC(=S)N1 (stereo not drawn) -1

====

Tested on: Fusobacterium nucleatum subsp. animalis
assayName: growth AUC relative to DMSO control (median of replicates) (fraction); higher = more growth (less inhibition), active = hit call of the paper
conditions: 20 µM; 24 h
attributeMeasured: growth AUC
Reply with the value as a number alone.

Some solved cases for reference:
compound | attributeMeasured | recordedValue
CN(C)C1CSSSC1.O=C(O)C(=O)O | growth AUC | 1.05
OC(c1ccc(F)cc1)(c1cncnc1)c1ccccc1Cl (configuration not stated) | growth AUC | 1.06
CCOP(=O)(OCC)Oc1ccc(S(C)(=O)=O)cc1 | growth AUC | 0.996
CCCSC(=O)N(CCC)CCC | growth AUC | 1
COC(=O)Nc1cccc(OC(=O)Nc2cccc(C)c2)c1 | growth AUC | 0.944
C#CC(C)(C)NC(=O)c1cc(Cl)cc(Cl)c1 | growth AUC | 0.95
COC(=O)c1sccc1S(=O)(=O)NC(=O)Nc1nc(C)nc(OC)n1 | growth AUC | 0.975
COc1cc(OC)nc(Sc2cccc(Cl)c2C(=O)O)n1 | growth AUC | 0.941

# get_value(readout='growth AUC', item= CCN(CC)C(=O)SCc1ccc(Cl)cc1 ) 0.957

Try the compound CC(C1CC1)C(O)(Cn1cncn1)c1ccc(Cl)cc1 (mixture of isomers) 1.09

Try the compound COP(=S)(OC)SC(CC(=O)O)C(=O)O (configuration not stated) 1.01

Try the compound CSc1nnc(C(C)(C)C)c(=O)n1N 1.03

====

System: Parabacteroides distasonis
assayName: growth AUC relative to DMSO control (median of replicates) (fraction); higher = more growth (less inhibition), active = hit call of the paper
conditions: 20 µM; 24 h
attributeMeasured: growth AUC
Reply with the value as a number alone.

Some solved cases for reference:
compound | recordedValue
CCS(=O)(=O)c1cccnc1S(=O)(=O)NC(=O)Nc1nc(OC)cc(OC)n1 | 1.02
N#Cc1c[nH]cc1-c1cccc2c1OC(F)(F)O2 | 0.759
CCCSC(=O)N(CCC)CCC | 0.995
CCCCCCCCSC(=O)Oc1cc(Cl)nnc1-c1ccccc1 | 0.99
OCC1C(CO)C2(Cl)C(Cl)=C(Cl)C1(Cl)C2(Cl)Cl (configuration not stated) | 1.09
CCN(CC)C(=O)/C(Cl)=C(/C)OP(=O)(OC)OC | 0.888
CCC(C)Nc1c([N+](=O)[O-])cc(C(C)(C)C)cc1[N+](=O)[O-] (configuration not stated) | 0.919
CCOP(=S)(OCC)SCSc1ccc(Cl)cc1 | 0.911
Nc1cc(Cl)cc(C(=O)O)c1Cl | 1.01
O=C(O)c1cc(Oc2ccc(C(F)(F)F)cc2Cl)ccc1[N+](=O)[O-] | 0.896

# get_value(readout='growth AUC', item= CCOP(=S)(OCC)SCSC(C)(C)C ) 0.955

Try the compound Cc1cc(C2CC2)nc(Nc2ccccc2)n1 1.01
